Kindly state MIC for each of the entries shown.
tested on: Citrobacter freundii (CFR) isolates; assay: MIC of compounds alone and combined with antibacterials, broth microdilution (CLSI); assay type: cell-based; conditions: strain CFR UFR146; genotype TEM-1, KPC-2

// worked examples, MIC included
| compound | target_system | quantity_name | recorded_result |
| --- | --- | --- | --- |
| CO/N=C(\C(=O)N[C@@H]1C(=O)N2C(C(=O)O)=C(COC(N)=O)CS[C@H]12)c1ccco1 [FUR, Cefuroxime] | Citrobacter freundii (CFR) isolates | MIC | >256 µg/mL |
| CC1(C)S[C@@H]2[C@H](NC(=O)[C@H](N)c3ccc(O)cc3)C(=O)N2[C@H]1C(=O)O [AMX, Amoxicillin] | Citrobacter freundii (CFR) isolates | MIC | >128 µg/mL |
| CC(C)(O/N=C(\C(=O)N[C@@H]1C(=O)N2C(C(=O)[O-])=C(C[n+]3ccccc3)CS[C@H]12)c1csc(N)n1)C(=O)O [CAZ, Ceftazidime] | Citrobacter freundii (CFR) isolates | MIC | 32 µg/mL |

Suppose we examine the compound C=CC1=C(C(=O)O)N2C(=O)[C@@H](NC(=O)/C(=N\OCC(=O)O)c3csc(N)n3)[C@H]2SC1 [FIX, Cefixime] ; what MIC value has been reported?
64 µg/mL
